# System: RARa:RXR (NR concentration 270 nM, RXRa partner concentration 90 nM)
# Protocol details: PBM binding z-score (relative to random genomic background probes); higher = stronger binding; sequences stand for … in GC…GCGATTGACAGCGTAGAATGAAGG
Threshold check on PBM binding z-score: at or above 4 gives Satisfied, strictly below gives Not satisfied.

Exam item: Check the entry CCTTACGGGTCACTCCAGATTATAGCATCGGAGT : does PBM binding z-score equal or exceed 4?
Marked response: Not satisfied

Exam item: Answer whether PBM binding z-score of CGTCAAAGTTCAACCAAGGTAACGTAAAGCACGC is greater than or equal to 4.
Marked response: Satisfied

Exam item: Decide: is the reported value of PBM binding z-score for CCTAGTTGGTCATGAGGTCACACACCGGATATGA equal to or greater than 4?
Marked response: Satisfied

Exam item: Given the entry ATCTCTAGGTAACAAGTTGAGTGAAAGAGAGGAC , answer whether its PBM binding z-score meets or surpasses 4.
Marked response: Not satisfied

Exam item: Is the recorded value of PBM binding z-score equal to or greater than 4 for this sequence? CCTAGTAGGTCAAGGTCACACACGCTATAGGTAC
Marked response: Satisfied
